Tested on: Vero E6 infected with SARS-CoV-2
protocol.notes: inhibition of SARS-CoV-2 cytopathic effect; higher = more antiviral protection, active = above 15
test.settings: 1 nM; 48 h
measure.name: inhibition of SARS-CoV-2 cytopathic effect (%)
Please give a number only; it is taken to be in %.

O=C(O)CN1C(=O)c2cccc3cccc(c23)C1=O [alrestatin]
5.18
CN1CCC[C@@H]1Cc1c[nH]c2ccc(CCS(=O)(=O)c3ccccc3)cc12 [eletriptan]
-0.44
NCC(CC(=O)O)c1ccc(Cl)cc1 (stereo unspecified) [baclofen]
-0.225

input: Notebook entry, Vero E6 infected with SARS-CoV-2 assay: inhibition of SARS-CoV-2 cytopathic effect of C=CC(=O)O [acrylate] = ?
output: 0.49

input: Notebook entry, Vero E6 infected with SARS-CoV-2 assay: inhibition of SARS-CoV-2 cytopathic effect of `O=C(OCCN1CCCCC1)c1c[nH]c2ccccc12` = ?
output: 0.38

input: Notebook entry, Vero E6 infected with SARS-CoV-2 assay: inhibition of SARS-CoV-2 cytopathic effect of `N#Cc1ccc(-c2ccc(S(=O)(=O)Nc3cccc(N)n3)cc2)cc1` = ?
output: 0.14

// provenance: the supplement of paper PMC13380429
